system: HCA-7 colon cancer cells; test: Effect of agents on growth of HCA-7 cells; format: cell-based; details: Homo sapiens, 168 h time point, cell counts
RECORDED ENDPOINT: pIC50
In plain terms, pIC50 is the concentration in mol/L turned into minus its base-10 logarithm.

Record COc1ccc(C=Cc2cc(OC)c(OC)c(OC)c2)cc1 / HCA-7 colon cancer cells, pIC50 recorded as 5.22
